system: ZR-75-30 (Breast Carcinoma); assay: Bliss excess, mean over the matrix (fraction); higher = more synergy
Recorded Bliss excess for the following compounds

Compound	Readout Label	Assay Result
C[C@@H](Nc1cc(F)cc(F)c1)c1cc(C(=O)N(C)C)cc2c(=O)cc(N3CCOCC3)oc12 [AZD8186] + CC(=O)c1c(C)c2cnc(Nc3ccc(N4CCNCC4)cn3)nc2n(C2CCCC2)c1=O [Palbociclib] (first compound max 10 µM, 7x7, partner max 10 µM)	Bliss excess	-0.0465
CN(CCO)CC[C@H](CSc1ccccc1)Nc1ccc(S(=O)(=O)NC(=O)c2ccc(N3CCC([C@@H](O)c4ccccc4-c4ccc(Cl)cc4)CC3)cc2)cc1S(=O)(=O)C(F)(F)F [AZD4320] + C=CCn1c(=O)c2cnc(Nc3ccc(N4CCN(C)CC4)cc3)nc2n1-c1cccc(C(C)(C)O)n1 [AZD1775] (first compound max 1 µM, partner max 1 µM)	Bliss excess	-0.0083
COc1cc2ncnc(Nc3ccc(F)c(Cl)c3)c2cc1OCCCN1CCOCC1 [Gefitinib] + CC(C)n1c(=O)n(C)c2cnc3cc(F)c(-c4ccc(OCCCN5CCCCC5)nc4)cc3c21 [AZD1390] (first compound max 10 µM, 7x7, partner max 0.3 µM)	Bliss excess	-0.0587
CN(C)CCCOc1ccc(-c2ccc3ncc4c(c3c2)n(C2CCOCC2)c(=O)n4C)cn1 [AZD0156] + C=CCn1c(=O)c2cnc(Nc3ccc(N4CCN(C)CC4)cc3)nc2n1-c1cccc(C(C)(C)O)n1 [AZD1775] (first compound max 1 µM, partner max 1 µM)	Bliss excess	-0.0398
CC1(C)CCC(CN2CCN(c3ccc(C(=O)NS(=O)(=O)c4ccc(NCC5CCOCC5)c([N+](=O)[O-])c4)c(Oc4cnc5[nH]ccc5c4)c3)CC2)=C(c2ccc(Cl)cc2)C1 [Venetoclax] + CCN(CCO)CCCOc1ccc2c(Nc3cc(CC(=O)Nc4cccc(F)c4)[nH]n3)ncnc2c1 [AZD2811] (first compound max 1 µM, 7x7, partner max 1 µM)	Bliss excess	-0.0575

// moving on: another record for Bliss excess
Measured Bliss excess of Cc1c2c(nn1C)CSCc1cc(n(C)n1)CSc1cc(c3ccccc3c1)OCCCc1c(C(=O)O)n(C)c3c-2c(Cl)ccc13 [AZD5991] + CC(=O)O[C@H]1C(=O)[C@@]2(C)[C@H]([C@H](OC(=O)c3ccccc3)[C@]3(O)C[C@H](OC(=O)[C@H](O)[C@@H](NC(=O)c4ccccc4)c4ccccc4)C(C)=C1C3(C)C)[C@]1(OC(C)=O)CO[C@@H]1C[C@@H]2O [Paclitaxel] (first compound max 1 µM, 7x7, partner max 3 µM) : 0.0617

---

tested on: MONO-MAC-6 (Acute Myeloid Leukemia); test: Bliss excess, mean over the matrix (fraction); higher = more synergy
Readout Label: Bliss excess

Molecule	Bliss excess
CN(CCO)CC[C@H](CSc1ccccc1)Nc1ccc(S(=O)(=O)NC(=O)c2ccc(N3CCC([C@@H](O)c4ccccc4-c4ccc(Cl)cc4)CC3)cc2)cc1S(=O)(=O)C(F)(F)F [AZD4320] + C[C@@H]1COCCN1C2=NC(=NC(=C2)C3(CC3)[S@](=N)(=O)C)C4=C5C=CNC5=NC=C4 [AZD6738] (first compound max 1 µM, 7x7, partner max 10 µM)	0.0003
CC1(C)CCC(CN2CCN(c3ccc(C(=O)NS(=O)(=O)c4ccc(NCC5CCOCC5)c([N+](=O)[O-])c4)c(Oc4cnc5[nH]ccc5c4)c3)CC2)=C(c2ccc(Cl)cc2)C1 [Venetoclax] + COc1cc(Nc2ncc3c(n2)-c2ccc(Cl)cc2C(c2c(F)cccc2OC)=NC3)ccc1C(=O)O [Alisertib] (first compound max 1 µM, 7x7, partner max 10 µM)	0.164
CN(C)CCCOc1ccc(-c2ccc3ncc4c(c3c2)n(C2CCOCC2)c(=O)n4C)cn1 [AZD0156] + C=CCn1c(=O)c2cnc(Nc3ccc(N4CCN(C)CC4)cc3)nc2n1-c1cccc(C(C)(C)O)n1 [AZD1775] (first compound max 1 µM, partner max 1 µM)	0.0017
Cc1c2c(nn1C)CSCc1cc(n(C)n1)CSc1cc(c3ccccc3c1)OCCCc1c(C(=O)O)n(C)c3c-2c(Cl)ccc13 [AZD5991] + CC1(C)CCC(CN2CCN(c3ccc(C(=O)NS(=O)(=O)c4ccc(NCC5CCOCC5)c([N+](=O)[O-])c4)c(Oc4cnc5[nH]ccc5c4)c3)CC2)=C(c2ccc(Cl)cc2)C1 [Venetoclax] (first compound max 1 µM, 7x7, partner max 1 µM)	0.136
Cc1cc2ncnn2cc1Nc1ncc2c(n1)n(C1CCOCC1)c(=O)n2C [AZD7648] + C=CCn1c(=O)c2cnc(Nc3ccc(N4CCN(C)CC4)cc3)nc2n1-c1cccc(C(C)(C)O)n1 [AZD1775] (first compound max 10 µM, partner max 1 µM)	-0.0188

Reported Bliss excess of Cn1cnc2c(F)c(Nc3ccc(Br)cc3Cl)c(C(=O)NOCCO)cc21 [Selumetinib] + CCN(CCO)CCCOc1ccc2c(Nc3cc(CC(=O)Nc4cccc(F)c4)[nH]n3)ncnc2c1 [AZD2811] (first compound max 10 µM, 7x7, partner max 1 µM) : 0.003

Per the records, this molecule ( N#Cc1cnc(Nc2cc(NC[C@H]3CNCCO3)c(C(F)(F)F)cn2)cn1 [SRA737] + O=c1[nH]cc(F)c(=O)[nH]1 [5-Fluorouracil] (first compound max 10 µM, 7x7, partner max 20 µM) ) has Bliss excess equal to 0.0181

---

test system: SK-CO-1 (Colorectal Carcinoma); test: combination Emax (second highest fraction inhibited in the dose matrix, 72 h); higher = more inhibition; extreme values may be limits of the assay
Mark class 1 for reported combination Emax of 0.8 or greater; mark class 0 for anything smaller.

See these solved cases before continuing.
Compound	Category Label
C[C@@H](Nc1cc(F)cc(F)c1)c1cc(C(=O)N(C)C)cc2c(=O)cc(N3CCOCC3)oc12 [AZD8186] + C1CN(CCC1(C(=O)N[C@@H](CCO)C2=CC=C(C=C2)Cl)N)C3=NC=NC4=C3C=CN4 [AZD5363] (first compound max 10 µM, 7x7, partner max 10 µM)	class 0
CS(=O)(=O)CCNCc1ccc(-c2ccc3ncnc(Nc4ccc(OCc5cccc(F)c5)c(Cl)c4)c3c2)o1 [Lapatinib] + Cn1cnc2c(F)c(Nc3ccc(Br)cc3Cl)c(C(=O)NOCCO)cc21 [Selumetinib] (first compound max 10 µM, 7x7, partner max 10 µM)	class 1
CCc1c2c(nc3ccc(O)cc13)-c1cc3c(c(=O)n1C2)COC(=O)[C@]3(O)CC [SN-38] + CN(C)CCCOc1ccc(-c2ccc3ncc4c(c3c2)n(C2CCOCC2)c(=O)n4C)cn1 [AZD0156] (first compound max 0.3 µM, 7x7, partner max 1 µM)	class 1

Next, consider the following compound.
## Input Exam item: decide whether the reported combination Emax for C=CCn1c(=O)c2cnc(Nc3ccc(N4CCN(C)CC4)cc3)nc2n1-c1cccc(C(C)(C)O)n1 [AZD1775] + O=C(c1cc(Cc2n[nH]c(=O)c3ccccc23)ccc1F)N1CCN(C(=O)C2CC2)CC1 [Olaparib] (first compound max 1 µM, partner max 10 µM) is at least 0.8.
## Output class 0

---

system: CL-11 (Colorectal Carcinoma); assay: Bliss excess, mean over the matrix (fraction); higher = more synergy
Reported Bliss excess is given for each of the following compounds.
Reply with just the number.

Compound	Readout Label	Assay Result
NC1(C(=O)N[C@@H](CCO)c2ccc(Cl)cc2)CCN(c2ncnc3[nH]ccc23)CC1 [Capivasertib] + C[C@@H]1COCCN1C2=NC(=NC(=C2)C3(CC3)[S@](=N)(=O)C)C4=C5C=CNC5=NC=C4 [AZD6738] (first compound max 10 µM, 7x7, partner max 10 µM)	Bliss excess	-0.0376
Cc1c2c(nn1C)CSCc1cc(n(C)n1)CSc1cc(c3ccccc3c1)OCCCc1c(C(=O)O)n(C)c3c-2c(Cl)ccc13 [AZD5991] + CN(C)CCCOc1ccc(-c2ccc3ncc4c(c3c2)n(C2CCOCC2)c(=O)n4C)cn1 [AZD0156] (first compound max 1 µM, 7x7, partner max 1 µM)	Bliss excess	-0.0081
Cc1nc(Nc2ncc(C(=O)Nc3c(C)cccc3Cl)s2)cc(N2CCN(CCO)CC2)n1 [Dasatinib] + CC(=O)Nc1cccc(-n2c(=O)n(C3CC3)c(=O)c3c(Nc4ccc(I)cc4F)n(C)c(=O)c(C)c32)c1 [Trametinib] (first compound max 2 µM, 7x7, partner max 1 µM)	Bliss excess	0.0766
CCc1c2c(nc3ccc(O)cc13)-c1cc3c(c(=O)n1C2)COC(=O)[C@]3(O)CC [SN-38] + O=C(c1cc(Cc2n[nH]c(=O)c3ccccc23)ccc1F)N1CCN(C(=O)C2CC2)CC1 [Olaparib] (first compound max 0.3 µM, 7x7, partner max 10 µM)	Bliss excess	0.0626
COc1cccc(OCCCN)c1-c1cc(Nc2cnc(C#N)cn2)n[nH]1 [Prexasertib] + CN(C)CCCOc1ccc(-c2ccc3ncc4c(c3c2)n(C2CCOCC2)c(=O)n4C)cn1 [AZD0156] (first compound max 1 µM, 7x7, partner max 1 µM)	Bliss excess	-0.0548

Tested system CL-11 (Colorectal Carcinoma); Bliss excess recorded for NC1(C(=O)N[C@@H](CCO)c2ccc(Cl)cc2)CCN(c2ncnc3[nH]ccc23)CC1 [Capivasertib] + CCN(CCO)CCCOc1ccc2c(Nc3cc(CC(=O)Nc4cccc(F)c4)[nH]n3)ncnc2c1 [AZD2811] (first compound max 10 µM, 7x7, partner max 1 µM) was -0.0034

Tested system CL-11 (Colorectal Carcinoma); Bliss excess recorded for CC(=O)Nc1cccc(-n2c(=O)n(C3CC3)c(=O)c3c(Nc4ccc(I)cc4F)n(C)c(=O)c(C)c32)c1 [Trametinib] + Cc1nc(-c2cn3c(n2)-c2ccc(-c4cnn(C(C)(C)C(N)=O)c4)cc2OCC3)n(C(C)C)n1 [Taselisib] (first compound max 1 µM, 7x7, partner max 10 µM) was 0.139
